System: ATP;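 note: ATP exposure 15 min at 22 °C before imaging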
Test: switch fluorescence ratio, 500 uM ATP over buffer (Cy3 cluster intensity, sum of 5 cycles each) (fold (ratio)); higher = stronger signal-on switching upon ATP binding; sequences stand for … in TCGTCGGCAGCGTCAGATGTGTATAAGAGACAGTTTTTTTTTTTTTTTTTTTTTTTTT…TC
Settings: aptamer strand: ATP DNA aptamer (quencher-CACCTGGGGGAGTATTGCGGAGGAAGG + anchor), 100 nM annealed; ATP concentration: 500 uM
TEST READOUT: switch fluorescence ratio
// no unit, no text: just the number

Consider the reported switch fluorescence ratio for these sequences:
GAACAAGGAG: 1.03
TTAGTGTCGA: 1.02
ATAGGTCTCA: 1
TAGTCATTGA: 1.01

Please report switch fluorescence ratio for the following sequence: `GGAACGTAGG`
1.02

Indicate the recorded switch fluorescence ratio value for this sequence: `TGAGTTCGCA`
1.69

Consider the sequence `CATGTCATTG` and give its recorded switch fluorescence ratio.
1.01

Supply switch fluorescence ratio value. Item: `TCGGGAGCGT`
1.01

Fill in reported switch fluorescence ratio for this entry: `GATGTCAGGC`
0.996

Please report switch fluorescence ratio for the following sequence: `AGCTACGTCG`
0.942
